- tested target: GST-Rok (full length) (Bacillus subtilis subsp. subtilis str. …, UniProt O34857 1-191)
- Sequence: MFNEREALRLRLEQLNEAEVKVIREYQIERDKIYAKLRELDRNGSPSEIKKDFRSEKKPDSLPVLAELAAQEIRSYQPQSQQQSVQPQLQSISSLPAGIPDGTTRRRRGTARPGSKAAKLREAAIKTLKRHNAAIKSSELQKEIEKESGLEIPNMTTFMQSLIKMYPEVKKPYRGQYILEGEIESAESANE
- assay protocol: protein binding microarray; Rok is a gene silencer of Bacillus subtilis; high values mean tight binding
- condition description: protein: recombinant; tags: GST (pTH5325, pDEST15-Magic modified); dsDNA, one strand shown
The full ranking holds about 33,000 sequences; the median of “e-score” is about -0.037, and the highest 2% start at about 0.34. What follows is part of a selection rich in the highest values, with near analogues and random picks from the rest.
Quick rule: binding signal of at least 0.2 E-score means satisfied, below that means not satisfied.

{"chain sequence": "CATCATTA", "class": "not satisfied"}
{"chain sequence": "GTACTACA", "class": "satisfied"}
{"chain sequence": "AGGATTTA", "class": "not satisfied"}
{"chain sequence": "GAATGTAA", "class": "satisfied"}
{"chain sequence": "CGCTAGTA", "class": "satisfied"}
{"chain sequence": "ATACTACG", "class": "satisfied"}
{"chain sequence": "GTACAACA", "class": "not satisfied"}
{"chain sequence": "GCTGGAGA", "class": "not satisfied"}
{"chain sequence": "AGGCTTAA", "class": "not satisfied"}
{"chain sequence": "ATACAAAA", "class": "satisfied"}
{"chain sequence": "CGAGTTAA", "class": "not satisfied"}
{"chain sequence": "ATTGATTC", "class": "not satisfied"}
{"chain sequence": "ACGCGGCA", "class": "not satisfied"}
{"chain sequence": "GTAGTTCA", "class": "satisfied"}
{"chain sequence": "AAGCCGAA", "class": "not satisfied"}
{"chain sequence": "ATACATAC", "class": "satisfied"}
{"chain sequence": "GCCGATGA", "class": "not satisfied"}
{"chain sequence": "GAAGTTAA", "class": "satisfied"}
{"chain sequence": "ATACTAGC", "class": "satisfied"}
{"chain sequence": "AAATATAC", "class": "satisfied"}
{"chain sequence": "CAAAAAGA", "class": "not satisfied"}
{"chain sequence": "ACCCTCGC", "class": "not satisfied"}
{"chain sequence": "CTAGTTCC", "class": "not satisfied"}
{"chain sequence": "CTACATAG", "class": "not satisfied"}
{"chain sequence": "CTTGTCTC", "class": "not satisfied"}
{"chain sequence": "CTACAACC", "class": "not satisfied"}
{"chain sequence": "GATCATTA", "class": "satisfied"}
{"chain sequence": "GACTTCTA", "class": "not satisfied"}
{"chain sequence": "ATACAAAC", "class": "satisfied"}
{"chain sequence": "ATACAAAT", "class": "satisfied"}
{"chain sequence": "CTCTAAAC", "class": "not satisfied"}
{"chain sequence": "GAATTCTA", "class": "satisfied"}
{"chain sequence": "AATCATTA", "class": "not satisfied"}
{"chain sequence": "CTAGTTAA", "class": "satisfied"}
{"chain sequence": "CGACTACG", "class": "not satisfied"}
{"chain sequence": "ATACACAT", "class": "satisfied"}
{"chain sequence": "ATATTCTC", "class": "satisfied"}
{"chain sequence": "AGGGTACG", "class": "not satisfied"}
{"chain sequence": "ATTGGCTC", "class": "not satisfied"}
{"chain sequence": "ACCCGCAG", "class": "not satisfied"}
{"chain sequence": "GCATGGGC", "class": "not satisfied"}
{"chain sequence": "AACGGCTG", "class": "not satisfied"}
{"chain sequence": "CAGCTAGA", "class": "not satisfied"}
{"chain sequence": "GAATTCTC", "class": "not satisfied"}
{"chain sequence": "CAAGTTAA", "class": "not satisfied"}
{"chain sequence": "CTACTACA", "class": "satisfied"}
